FYI, the data here is from patent US11453689B2.

Experiment: In vivo pharmacokinetics in male SD rats (IV and PO)
Settings: male, SD, plasma; rat, IV, 0.3 mg/kg
measurementType: C0 (ng/mL)
Give the quantity in ng/mL, number only.

*Q* Please give the measured C0 for this molecule: [2H]C([2H])([2H])N1CCC[C@@H]1Cc1c[nH]c2cccc(O)c12
*A* 77.4

*Q* Further, for [2H]C([2H])(c1c[nH]c2cccc(OC)c12)[C@H]1CCCN1C([2H])([2H])[2H] ?
*A* 50.8

*Q* Field entry: [2H]C([2H])(c1c[nH]c2cccc(O)c12)[C@H]1CCCN1C([2H])([2H])[2H]
*A* 70.2

###

Assay: In vivo pharmacokinetics in male C57BL/6 mice (IV and PO)
Details: male, C57BL/6, plasma; mouse, IV, 1 mg/kg
measurementType: clearance (mL/min/kg)
Unit mL/min/kg implied. Number only.

*Q* For the compound shown here, [2H]C([2H])(c1c[nH]c2cccc(OC)c12)[C@H]1CCCN1C([2H])([2H])[2H] , give the reported clearance.
*A* 9.25

*Q* Also check [2H]C([2H])([2H])N1CCC[C@@H]1Cc1c[nH]c2cccc(O)c12
*A* 64.5

*Q* Now the same for [2H]C([2H])(c1c[nH]c2cccc(O)c12)[C@H]1CCCN1C([2H])([2H])[2H]
*A* 42.5

###

Experiment: In vivo pharmacokinetics in male C57BL/6 mice (IV and PO)
Details: male, C57BL/6, plasma; mouse, IV, 5 mg/kg
measurementType: clearance (mL/min/kg)
Report as a plain number; the unit mL/min/kg is understood.

*Q* Item under review: [2H]C([2H])([2H])N1CCC[C@@H]1Cc1c[nH]c2cccc(O)c12 [Compound I-2] . Reported clearance?
*A* 72.8

###

What Tmax was measured for each of the following?
Test: In vivo pharmacokinetics in male SD rats (IV and PO)
Conditions: male, SD, plasma; rat, PO, 3 mg/kg
Output spec: scalar in min, unitless text.

*Q* # get_value(readout='Tmax', item= [2H]C([2H])(c1c[nH]c2cccc(O)c12)[C@H]1CCCN1C([2H])([2H])[2H] )
*A* 30

*Q* And the next one, [2H]C([2H])(c1c[nH]c2cccc(OC)c12)[C@H]1CCCN1C([2H])([2H])[2H] ?
*A* 200

*Q* Likewise for [2H]C([2H])([2H])N1CCC[C@@H]1Cc1c[nH]c2cccc(O)c12 ?
*A* 20

###

Test: Rat liver microsomes stability with NADPH
Settings: male, rat, microsomes
Is half-life at 2 μM at least 40 min? Then True. If not, False.

*Q* Determine whether this compound has half-life at 2 μM no lower than 40 min: [2H]C([2H])([2H])N1CCC[C@@H]1Cc1c[nH]c2cccc(F)c12
*A* True

*Q* What do you have for [2H]C([2H])(c1c[nH]c2cccc(O)c12)[C@H]1CCCN1C([2H])([2H])[2H] ?
*A* False

*Q* Next compound: [2H]C([2H])([2H])N1CCC[C@@H]1Cc1c[nH]c2cccc(O)c12
*A* False

*Q* Queued: [2H]C([2H])(c1c[nH]c2cccc(F)c12)[C@H]1CCCN1C([2H])([2H])[2H]
*A* False

*Q* Here is the next compound: [2H]C([2H])(c1c[nH]c2cccc(OC)c12)[C@H]1CCCN1C([2H])([2H])[2H]
*A* False

*Q* Then what about the compound [2H]C([2H])(c1c[nH]c2cccc(OC(=O)CCCCCCC/C=C\C/C=C\CCCCC)c12)[C@H]1CCCN1C([2H])([2H])[2H] ?
*A* True
